Test system: S. aureus, 87037 (LVFX-resistant MRSA)
assayMethodText: antibacterial activity (MIC), standard method of Japanese Society of Chemotherapy
assayContext: Staphylococcus aureus, MRSA, S. aureus, 87037 (LVFX-resistant MRSA)
# log10 of MIC listing for each entry below
recordedMetric: log10 of MIC (log10 of the value in µg/mL)

{"columns": ["compound", "systemUnderTest", "resultNumber"],
 "data": [
  ["COc1c(N2C[C@@H]3CCCN[C@@H]3C2)c(F)cc2c(=O)c(C(=O)O)cn(C3CC3)c12 [MFLX, moxifloxacin, reference compound]", "S. aureus, 87037 (LVFX-resistant MRSA)", 0.19],
  ["COc1c(N2C[C@H](C)[C@@](C)(N)C2)c(F)cc2c(=O)c(C(=O)O)cn([C@@H]3C[C@@H]3F)c12 (single isomer, unassigned) [Example 2]", "S. aureus, 87037 (LVFX-resistant MRSA)", -0.11],
  ["COc1c(N2C[C@@H](N)C3(CC3)C2)c(F)cc2c(=O)c(C(=O)O)cn([C@@H]3C[C@@H]3F)c12 [Comparative compound 1]", "S. aureus, 87037 (LVFX-resistant MRSA)", -0.41],
  ["COc1c(N2CC(C)C(C)(N)C2)c(F)cc2c(=O)c(C(=O)O)cn([C@@H]3C[C@@H]3F)c12 (relative stereo) [Example 1]", "S. aureus, 87037 (LVFX-resistant MRSA)", -0.11],
  ["Cc1c(N2C[C@H](CF)[C@](C)(N)C2)c(F)cc2c(=O)c(C(=O)O)cn(C3CC3)c12 [Example 23]", "S. aureus, 87037 (LVFX-resistant MRSA)", -0.41],
  ["COc1c(N2CC(C)(N)C3(CC3)C2)c(F)cc2c(=O)c(C(=O)O)cn([C@@H]3C[C@@H]3F)c12 (stereo partly shown) [Example 9]", "S. aureus, 87037 (LVFX-resistant MRSA)", -0.11],
  ["Cc1c(N2CC(C)[C@@](N)(CF)C2)c(F)cc2c(=O)c(C(=O)O)cn([C@@H]3C[C@@H]3F)c12 (stereo partly shown) [Example 31]", "S. aureus, 87037 (LVFX-resistant MRSA)", -1.00],
  ["COc1c(N2CC(C)[C@@](N)(CF)C2)c(F)cc2c(=O)c(C(=O)O)cn([C@@H]3C[C@@H]3F)c12 (stereo partly shown) [Example 28]", "S. aureus, 87037 (LVFX-resistant MRSA)", -0.70],
  ["COc1c(N2CC(CF)C(C)(N)C2)c(F)cc2c(=O)c(C(=O)O)cn([C@@H]3C[C@@H]3F)c12 (single isomer, unassigned) [Example 8]", "S. aureus, 87037 (LVFX-resistant MRSA)", -0.11],
  ["Cc1c(N2CC3(CC3)[C@](C)(N)C2)ccc2c(=O)c(C(=O)O)cn([C@@H]3C[C@@H]3F)c12 [Example 29]", "S. aureus, 87037 (LVFX-resistant MRSA)", 0.50],
  ["Cc1c(N2CC(F)[C@](C)(N)C2)c(F)cc2c(=O)c(C(=O)O)cn([C@@H]3C[C@@H]3F)c12 (single isomer, unassigned) [Example 27]", "S. aureus, 87037 (LVFX-resistant MRSA)", -0.41],
  ["C=C1CN(c2c(F)cc3c(=O)c(C(=O)O)cn([C@@H]4C[C@@H]4F)c3c2OC)C[C@]1(C)N [Example 17]", "S. aureus, 87037 (LVFX-resistant MRSA)", -0.41],
  ["Cc1c(N2CC3(CC3)[C@](C)(N)C2)ccc2c(=O)c(C(=O)O)cn(C3CC3)c12 [Example 30]", "S. aureus, 87037 (LVFX-resistant MRSA)", 0.19],
  ["C=C1CN(c2c(F)cc3c(=O)c(C(=O)O)cn([C@@H]4C[C@@H]4F)c3c2OC)C[C@@]1(C)N [Example 15]", "S. aureus, 87037 (LVFX-resistant MRSA)", -0.11],
  ["Cc1c(N2C[C@H](CF)[C@](C)(N)C2)c(F)cc2c(=O)c(C(=O)O)cn([C@@H]3C[C@@H]3F)c12 [Example 22]", "S. aureus, 87037 (LVFX-resistant MRSA)", -0.11],
  ["C[C@H]1COc2c(N3CC(C)(N)C4(CC4)C3)c(F)cc3c(=O)c(C(=O)O)cn1c23 (stereo partly shown) [Example 16]", "S. aureus, 87037 (LVFX-resistant MRSA)", 0.50],
  ["COc1c(N2C[C@H](CF)[C@](C)(N)C2)c(F)cc2c(=O)c(C(=O)O)cn(C3CC3)c12 [Example 21]", "S. aureus, 87037 (LVFX-resistant MRSA)", -0.11]
]}

====

systemUnderTest: hERG K+ channel (Homo sapiens, UniProt Q12809)
Sequence (Q12809 whole entry): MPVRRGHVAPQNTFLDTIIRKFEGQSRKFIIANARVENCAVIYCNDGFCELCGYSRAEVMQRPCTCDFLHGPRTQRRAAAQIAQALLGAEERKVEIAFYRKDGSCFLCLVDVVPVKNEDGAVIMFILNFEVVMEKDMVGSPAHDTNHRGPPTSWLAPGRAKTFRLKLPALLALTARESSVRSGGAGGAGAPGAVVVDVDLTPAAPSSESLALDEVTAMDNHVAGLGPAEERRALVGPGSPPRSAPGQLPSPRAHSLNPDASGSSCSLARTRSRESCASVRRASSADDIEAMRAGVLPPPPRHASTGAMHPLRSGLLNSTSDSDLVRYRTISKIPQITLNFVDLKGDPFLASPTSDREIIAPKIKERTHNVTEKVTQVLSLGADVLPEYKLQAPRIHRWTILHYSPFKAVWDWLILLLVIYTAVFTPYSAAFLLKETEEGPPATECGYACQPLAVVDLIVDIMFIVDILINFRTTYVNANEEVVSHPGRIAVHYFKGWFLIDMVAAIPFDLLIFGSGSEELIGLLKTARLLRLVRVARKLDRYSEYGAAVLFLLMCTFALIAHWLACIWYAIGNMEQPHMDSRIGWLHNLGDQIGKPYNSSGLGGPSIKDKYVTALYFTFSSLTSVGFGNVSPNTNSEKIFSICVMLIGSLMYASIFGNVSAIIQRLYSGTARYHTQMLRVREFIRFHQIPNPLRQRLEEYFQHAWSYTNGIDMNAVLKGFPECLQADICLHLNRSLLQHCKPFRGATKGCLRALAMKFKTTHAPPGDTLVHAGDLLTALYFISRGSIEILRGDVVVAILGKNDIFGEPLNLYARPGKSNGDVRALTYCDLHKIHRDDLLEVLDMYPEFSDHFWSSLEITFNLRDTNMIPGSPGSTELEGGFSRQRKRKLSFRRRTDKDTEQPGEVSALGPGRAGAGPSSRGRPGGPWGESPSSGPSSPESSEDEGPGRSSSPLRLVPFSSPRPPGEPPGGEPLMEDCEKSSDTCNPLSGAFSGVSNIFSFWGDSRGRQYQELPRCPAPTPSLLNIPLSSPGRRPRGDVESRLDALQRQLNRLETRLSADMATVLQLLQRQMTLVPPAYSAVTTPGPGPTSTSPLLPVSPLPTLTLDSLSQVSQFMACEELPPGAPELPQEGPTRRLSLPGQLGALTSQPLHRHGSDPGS
assayMethodText: hERG-K^+ channel blocking effect

{"columns": ["molecule", "inhibition at 30 µM [%]"],
 "data": [
  ["COc1c(N2CC(CF)C(C)(N)C2)c(F)cc2c(=O)c(C(=O)O)cn([C@@H]3C[C@@H]3F)c12 (single isomer, unassigned) [Example 8]", 1.5],
  ["COc1c(N2C[C@@H](N)C3(CC3)C2)c(F)cc2c(=O)c(C(=O)O)cn([C@@H]3C[C@@H]3F)c12 [Comparative compound 1]", 6.7],
  ["Cc1c(N2C[C@H](CF)[C@](C)(N)C2)c(F)cc2c(=O)c(C(=O)O)cn(C3CC3)c12 [Example 23]", 3],
  ["COc1c(N2CCNC(C)C2)c(F)cc2c(=O)c(C(=O)O)cn(C3CC3)c12 (centres unmarked) [GTFX, gatifloxacin, reference compound]", 8.1],
  ["COc1c(N2CC(C)(N)C3(CC3)C2)c(F)cc2c(=O)c(C(=O)O)cn([C@@H]3C[C@@H]3F)c12 (some centres unmarked) [Example 9]", 7.4]
]}

====

inhibition at 30 µM values, listed per item
systemUnderTest: hERG K+ channel (Homo sapiens)
assayMethodText: hERG-K^+ channel blocking effect

{"columns": ["molecule", "systemUnderTest", "unitsText", "inhibition at 30 µM"],
 "data": [
  ["Cc1c(N2CC(F)[C@](C)(N)C2)c(F)cc2c(=O)c(C(=O)O)cn([C@@H]3C[C@@H]3F)c12 (single isomer, unassigned) [Example 27]", "hERG K+ channel (Homo sapiens)", "%", -1.8],
  ["COc1c(N2C[C@@H]3CCCN[C@@H]3C2)c(F)cc2c(=O)c(C(=O)O)cn(C3CC3)c12 [MFLX, moxifloxacin, reference compound]", "hERG K+ channel (Homo sapiens)", "%", 33.9],
  ["COc1c(N2C[C@H](C)[C@@](C)(N)C2)c(F)cc2c(=O)c(C(=O)O)cn([C@@H]3C[C@@H]3F)c12 (single isomer, unassigned) [Example 2]", "hERG K+ channel (Homo sapiens)", "%", 3.8],
  ["COc1c(N2CC(F)[C@](C)(N)C2)c(F)cc2c(=O)c(C(=O)O)cn([C@@H]3C[C@@H]3F)c12 (single isomer, unassigned) [Example 25]", "hERG K+ channel (Homo sapiens)", "%", 2],
  ["Cc1c(N2C[C@H](CF)[C@](C)(N)C2)c(F)cc2c(=O)c(C(=O)O)cn([C@@H]3C[C@@H]3F)c12 [Example 22]", "hERG K+ channel (Homo sapiens)", "%", -1.3],
  ["COc1c(N2C[C@H](CF)[C@](C)(N)C2)c(F)cc2c(=O)c(C(=O)O)cn([C@@H]3C[C@@H]3F)c12 [Example 20]", "hERG K+ channel (Homo sapiens)", "%", 1.4]
]}

====

Listed compounds paired with reported melting point

{"columns": ["compound", "melting point"],
 "data": [
  ["COc1c(N2CC(C)[C@@](N)(CF)C2)c(F)cc2c(=O)c(C(=O)O)cn([C@@H]3C[C@@H]3F)c12 (stereo partly drawn) [Example 28]", "167 to 169 °C"],
  ["COc1c(N2CC(F)[C@](C)(N)C2)c(F)cc2c(=O)c(C(=O)O)cn([C@@H]3C[C@@H]3F)c12 (single isomer, unassigned) [Example 25]", "160 to 163 °C"],
  ["Cc1c(N2CC3(CC3)[C@](C)(N)C2)ccc2c(=O)c(C(=O)O)cn([C@@H]3C[C@@H]3F)c12 [Example 29]", "157 to 159 °C"],
  ["Cc1c(N2C[C@H](CF)[C@](C)(N)C2)c(F)cc2c(=O)c(C(=O)O)cn([C@@H]3C[C@@H]3F)c12 [Example 22]", "135 to 137 °C"],
  ["C=C1CN(c2c(F)cc3c(=O)c(C(=O)O)cn([C@@H]4C[C@@H]4F)c3c2OC)C[C@]1(C)N [Example 17]", "236 to 239 °C (dec.)"],
  ["COc1c(N2C[C@@H](CF)[C@@](C)(N)C2)c(F)cc2c(=O)c(C(=O)O)cn([C@@H]3C[C@@H]3F)c12 [Example 24]", "185 to 188 °C"],
  ["Cc1c(N2C[C@H](CF)[C@](C)(N)C2)c(F)cc2c(=O)c(C(=O)O)cn(C3CC3)c12 [Example 23]", "212 to 215 °C"],
  ["COc1c(N2C[C@H](CF)[C@](C)(N)C2)c(F)cc2c(=O)c(C(=O)O)cn([C@@H]3C[C@@H]3F)c12 [Example 20]", "187 to 189 °C"],
  ["COc1c(N2CC(F)[C@](C)(N)C2)c(F)cc2c(=O)c(C(=O)O)cn([C@@H]3C[C@@H]3F)c12 (single isomer, unassigned) [Example 26]", "206 to 208 °C"],
  ["CCC1CN(c2c(F)cc3c(=O)c(C(=O)O)cn([C@@H]4C[C@@H]4F)c3c2OC)CC1(C)N (relative stereo) [Example 14]", "167 to 169 °C"],
  ["Cc1c(N2CC(C)[C@@](N)(CF)C2)c(F)cc2c(=O)c(C(=O)O)cn([C@@H]3C[C@@H]3F)c12 (stereo partly drawn) [Example 31]", "200 to 203 °C"],
  ["COc1c(N2C[C@H](CF)[C@](C)(N)C2)c(F)cc2c(=O)c(C(=O)O)cn(C3CC3)c12 [Example 21]", "226 to 229 °C"],
  ["C=C1CN(c2c(F)cc3c(=O)c(C(=O)O)cn([C@@H]4C[C@@H]4F)c3c2OC)C[C@@]1(C)N [Example 15]", "100 to 102 °C"],
  ["C[C@H]1COc2c(N3CC(C)(N)C4(CC4)C3)c(F)cc3c(=O)c(C(=O)O)cn1c23 (stereo partly drawn) [Example 16]", "268 to 270 °C"],
  ["Cc1c(N2CC3(CC3)[C@](C)(N)C2)ccc2c(=O)c(C(=O)O)cn(C3CC3)c12 [Example 30]", "227 to 230 °C"]
]}

These entries and their values trace back to patent US7563805B2.
